# Test system: B16 melanoma cancer cell line
# Protocol details: MTT cytotoxicity assay, B16
# Format: cell-based
# Assay context: Mus musculus, B16, 24 h, read-out: IC50 B16
Experimental readout: pIC50
The meaning of pIC50 here: minus log10 of the concentration in molar units.

Below: 5 compounds and their reported pIC50.
Smiles input: COc1ccc(C(c2c[nH]c3ccc(C#N)cc23)c2c[nH]c3ccc(C#N)cc23)cc1
pIC50: 5.01

Smiles input: c1coc(C(c2c[nH]c3ccccc23)c2c[nH]c3ccccc23)c1
pIC50: 4.79

Smiles input: COc1cc(C(c2c[nH]c3ccccc23)c2c[nH]c3ccccc23)cc(OC)c1O
pIC50: 5.15

Smiles input: c1ccc2c(C(c3c[nH]c4ccccc34)c3c[nH]c4ccccc34)cccc2c1
pIC50: 5.02

Smiles input: Cc1[nH]c2ccccc2c1C(c1cccs1)c1c(C)[nH]c2ccccc12
pIC50: 4.80

Now consider the entry below.
The compound listed as `c1ccc(-c2[nH]c3ccccc3c2C(c2ccco2)c2c(-c3ccccc3)[nH]c3ccccc23)cc1` has a reported pIC50 of 4.63

====

# Tested on: B16 melanoma cancer cell line
# Protocol details: MTT cytotoxicity assay, B16
# Format: cell-based
# Assay context: Mus musculus, B16, 24 h, read-out: IC50 B16
Experimental readout: pIC50
FYI, pIC50 means -log10 of a concentration in mol per litre.

Consider the worked cases shown below.
Molecule: c1ccc2c(C(c3c[nH]c4ccccc34)c3c[nH]c4ccccc34)c3ccccc3cc2c1
Experimental readout: pIC50
Reported value: 4.87

Molecule: c1ccc(C(c2c[nH]c3ccccc23)c2c[nH]c3ccccc23)cc1
Experimental readout: pIC50
Reported value: 5.01

Molecule: COc1cccc2c1C(=O)c1c(O)c3c(c(O)c1C2=O)C[C@@](O)(C(=O)CO)C[C@@H]3O[C@H]1C[C@H](N)[C@H](O)[C@H](C)O1 [doxorubicin, reference compound]
Experimental readout: pIC50
Reported value: 6.10

Molecule: O=[N+]([O-])c1ccc(C(c2c[nH]c3ccccc23)c2c[nH]c3ccccc23)cc1
Experimental readout: pIC50
Reported value: 4.53

Read the next record carefully.
The recorded pIC50 for `COc1ccc(C(c2c[nH]c3ccccc23)c2c[nH]c3ccccc23)cc1OC` is 5.09

====

# Tested on: B16 melanoma cancer cell line
# Protocol details: MTT cytotoxicity assay, B16
# Format: cell-based
# Assay context: Mus musculus, B16, 24 h, read-out: IC50 B16
Item-by-item account of pIC50
Notebook: values listed as pIC50 are -log10 of the concentration (mol/L).

Smiles input: Brc1ccc2[nH]cc(C(c3ccco3)c3c[nH]c4ccc(Br)cc34)c2c1
pIC50: 4.71

B16 melanoma cancer cell line data for `COc1ccc(C(c2c(-c3ccccc3)[nH]c3ccccc23)c2c(-c3ccccc3)[nH]c3ccccc23)cc1OC` ; its pIC50: 4.80

Test item `COc1ccc2[nH]cc(C(c3ccc(C)cc3)c3c[nH]c4ccc(OC)cc34)c2c1` ; B16 melanoma cancer cell line; reported pIC50 was 4.44

Data origin, for the record: paper PMC10552104
